The values you see were collected from the SangsterLogP compilation.

Consider the following compounds; for each one, report its logP.
Write no unit; give the number alone.

Q) logP lookup needed for CC(Cl)(Cl)C(=O)O , thanks.
A) 1.34

Q) logP lookup needed for CN(C)C(=O)C(c1ccccc1)c1ccccc1 , thanks.
A) 2.17

Q) logP lookup needed for Nc1cc(Cl)cc(C(=O)O)c1Cl , thanks.
A) 1.46

Q) logP lookup needed for CCCN(CCC)c1c([N+](=O)[O-])cc(S(C)(=O)=O)cc1[N+](=O)[O-] , thanks.
A) 4.78

Q) logP lookup needed for Cc1cc(Cl)ccc1OCC(=O)O , thanks.
A) 2.69

Q) logP lookup needed for CCC(C)Nc1c([N+](=O)[O-])cc(C(C)(C)C)cc1[N+](=O)[O-] (centres undefined) , thanks.
A) 4.54

Q) logP lookup needed for Cc1[nH]c(=O)n(C(C)(C)C)c(=O)c1Cl , thanks.
A) 1.44

Q) logP lookup needed for CC(C)OC(=O)Nc1cccc(Cl)c1 , thanks.
A) 3.42

Q) logP lookup needed for ClC1=C(Cl)[C@]2(Cl)C3C(Cl)C(Cl)CC3[C@@]1(Cl)C2(Cl)Cl (some centres undefined) , thanks.
A) 5.89

Q) logP lookup needed for O=C(O)c1c(Cl)ccc(Cl)c1Cl , thanks.
A) 4.34

Q) logP lookup needed for CC(C)Nc1nc(Cl)nc(NC(C)C)n1 , thanks.
A) 3.09

Q) logP lookup needed for CCC(C)n1c(=O)[nH]c(C)c(Br)c1=O (centres undefined) , thanks.
A) 1.33

Q) logP lookup needed for COC(=O)C=C(C)OP(=O)(OC)OC , thanks.
A) 0.55

Q) logP lookup needed for CCCN(CC1CC1)c1c([N+](=O)[O-])cc(C(F)(F)F)cc1[N+](=O)[O-] , thanks.
A) 5.16
